System: Tyrosine-protein kinase JAK2 (Homo sapiens, UniProt O60674)
Sequence (O60674 whole entry): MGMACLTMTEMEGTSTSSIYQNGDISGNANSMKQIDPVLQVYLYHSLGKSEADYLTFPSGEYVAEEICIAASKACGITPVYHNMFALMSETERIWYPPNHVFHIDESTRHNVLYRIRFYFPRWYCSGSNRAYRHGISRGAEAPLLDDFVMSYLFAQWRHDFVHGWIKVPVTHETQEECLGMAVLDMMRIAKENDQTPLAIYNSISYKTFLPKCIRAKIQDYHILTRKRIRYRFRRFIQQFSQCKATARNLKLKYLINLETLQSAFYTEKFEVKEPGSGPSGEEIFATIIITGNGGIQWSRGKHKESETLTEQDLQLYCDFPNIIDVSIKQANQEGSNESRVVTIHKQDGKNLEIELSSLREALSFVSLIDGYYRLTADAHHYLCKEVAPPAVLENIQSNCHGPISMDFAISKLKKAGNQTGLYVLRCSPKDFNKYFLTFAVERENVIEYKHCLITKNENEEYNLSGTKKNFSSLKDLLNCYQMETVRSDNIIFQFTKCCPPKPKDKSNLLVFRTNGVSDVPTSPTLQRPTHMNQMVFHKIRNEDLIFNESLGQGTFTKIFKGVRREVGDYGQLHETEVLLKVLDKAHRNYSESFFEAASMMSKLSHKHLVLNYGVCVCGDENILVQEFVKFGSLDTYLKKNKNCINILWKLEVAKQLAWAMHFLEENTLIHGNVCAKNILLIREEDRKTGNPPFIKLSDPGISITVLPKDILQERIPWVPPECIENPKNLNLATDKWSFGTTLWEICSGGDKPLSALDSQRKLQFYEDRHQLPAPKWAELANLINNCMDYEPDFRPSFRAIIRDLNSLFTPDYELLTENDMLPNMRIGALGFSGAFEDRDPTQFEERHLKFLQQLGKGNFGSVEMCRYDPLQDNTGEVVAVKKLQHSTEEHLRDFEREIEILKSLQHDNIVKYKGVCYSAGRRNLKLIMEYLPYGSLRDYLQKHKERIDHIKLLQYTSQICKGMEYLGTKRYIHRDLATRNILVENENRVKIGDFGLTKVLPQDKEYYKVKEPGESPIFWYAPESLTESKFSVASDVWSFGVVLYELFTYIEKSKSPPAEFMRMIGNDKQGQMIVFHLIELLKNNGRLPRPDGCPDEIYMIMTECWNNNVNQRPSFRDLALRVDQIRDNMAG
Readout Kind: IC50 (nM)
Answers are plain numbers, in nM.

[ask] Which value of IC50 has been reported for `COCCOc1ccc(F)cc1[C@H]1CCCN1c1ccn2ncc(C(=O)NC3CC3)c2n1` in the records?
[reply] 472

Cited source: ChEMBL document CHEMBL3638907
